System: OVCAR-4 ovarian
Test: NCI-60 one-dose screen, 48 h (100 = growth as untreated, 0 = no growth, -100 = all killed)
Conditions: 10 µM unless noted
The panel holds about 83,000 compounds, 20% with a hit somewhere; the sample as a whole holds those more often.
Reported growth is given for each of the following compounds.
Numbers only here, please. The scale is %.

// worked examples, growth included
Cn1c(SCC(=O)c2ccc(Br)cc2)nc2ccccc2c1=O	81.8
NS(=O)(=O)c1ccc(Nc2nc(Nc3ccccc3)nc(N3N=C(c4ccc(Cl)cc4)CC3c3ccc(Cl)cc3)n2)cc1 (centres undefined)	49.5
Cn1c(SCC(=O)c2ccc(F)cc2)nc2ccccc2c1=O	79.1
CCCc1cc2cc(-n3nc(CC)c4c3CC(C)(C)CC4=O)cc(NC3CCC(O)CC3)c2c(=O)[nH]1 (centres undefined)	64.9
CC1CCN(CC(=O)Nn2c(COc3ccccc3)nc3ccccc3c2=O)CC1	94.9
O=c1oc2ccc(-c3ccc(F)cc3F)cc2c(=O)n1-c1ccc(Br)cc1F	78.7
Fc1cc(F)cc(NNC(=S)c2ccccc2)c1	49.1
Cc1ccc(C(=O)CSc2nnc(-c3ccc(-c4ccc(Cl)cc4)nc3C)o2)cc1	101

Could you now look at the following compound, please?
*Q* Please look at this compound and report its growth: `N#C/C(=N\Nc1ccc(F)cc1)C(=O)Nc1cc(-c2ccccc2)nn1-c1ccccc1`
*A* 1.96
